- testDetails: melting temperature; fluorescence melt of hairpins on a sequencing array, two-state fit, raised by 9.35 °C to match UV melts
- runConditions: sodium 0.088 M

- entrySequence: "CGTAAGCGGAAACGCACG (((..(((....))))))"
  unitName: "°C"
  Tm: 41.8
- entrySequence: "GCAATAGAAATATTGC ((((((....))))))"
  unitName: "°C"
  Tm: 46.4
- entrySequence: "GCGCACGAAAGTGCTCGC ((((((....)))..)))"
  unitName: "°C"
  Tm: 48.4
- entrySequence: "GTGGCCGAAAGGCGGCAC ((((((....)))..)))"
  unitName: "°C"
  Tm: 46.7
- entrySequence: "GCGCAGCGAAAGCCGAGC ((.(.((....)).).))"
  unitName: "°C"
  Tm: 46.7
- entrySequence: "GCCCTGGGAAACTAGGGC (((((.(....).)))))"
  unitName: "°C"
  Tm: 55.3
- entrySequence: "GGCATCCGAAAGGACGCC (((.(((....))).)))"
  unitName: "°C"
  Tm: 57.2
- entrySequence: "GGGGTGGGAAACCACTCC ((.((((....)))).))"
  unitName: "°C"
  Tm: 54.6
- entrySequence: "GACCGCGAAAGCGAGGTC ((((((....)))..)))"
  unitName: "°C"
  Tm: 56.6
- entrySequence: "GCGGGTGGAAACGTCCGC ((((..(....)..))))"
  unitName: "°C"
  Tm: 53
- entrySequence: "GAAAGCCGAAAGGCATTC (((.(((....))).)))"
  unitName: "°C"
  Tm: 45.9
- entrySequence: "GTTGCCGAAAGGCGTAAC ((((((....)))..)))"
  unitName: "°C"
  Tm: 34.7
- entrySequence: "GTGGTACGAAAGTACAC (((.(((....))))))"
  unitName: "°C"
  Tm: 49.7
- entrySequence: "GCAGTGCGAAAGCATCGC ((..(((....)))..))"
  unitName: "°C"
  Tm: 55.2
- entrySequence: "GCGATGCGAAAGCTACGC (((..((....))..)))"
  unitName: "°C"
  Tm: 65
- entrySequence: "CTCGGGAAACCGAG (((((....)))))"
  unitName: "°C"
  Tm: 56.1
- entrySequence: "GATGATGGAAACATCATC (((((((....)))))))"
  unitName: "°C"
  Tm: 58.1
- entrySequence: "GATCGAGCTGTCGATC ((((((....))))))"
  unitName: "°C"
  Tm: 51.3
- entrySequence: "GAGCTCGGAAACGGGTTC ((.(.((....)).).))"
  unitName: "°C"
  Tm: 42.3
- entrySequence: "GCTTACGAAAGTACCAGC ((((((....)))..)))"
  unitName: "°C"
  Tm: 27.9
- entrySequence: "GACGTTGGAAACAACGTC (((((((....)))))))"
  unitName: "°C"
  Tm: 68
- entrySequence: "GAGATTGGAAACAATCCC (.(((((....))))).)"
  unitName: "°C"
  Tm: 34
- entrySequence: "GCTAAGCGAAAGCGAAGC (((..((....))..)))"
  unitName: "°C"
  Tm: 63
- entrySequence: "GAAAGGGGAAACCTTTTC ((((.((....)).))))"
  unitName: "°C"
  Tm: 34.2
- entrySequence: "GCATAGGGAAACCTATAC (.(((((....))))).)"
  unitName: "°C"
  Tm: 27.8
- entrySequence: "GTCAACGAAAGTTGAC ((((((....))))))"
  unitName: "°C"
  Tm: 68.9
- entrySequence: "GATCACGACCGTGATC ((((((....))))))"
  unitName: "°C"
  Tm: 63.6
- entrySequence: "GGCCGTGGAAACACGGTC (.(((((....))))).)"
  unitName: "°C"
  Tm: 65.3
- entrySequence: "GACGGAGGAAACTCCGCC (.(((((....))))).)"
  unitName: "°C"
  Tm: 48.2
- entrySequence: "GTCCACGAAAGTGCGAC ((((((....))).)))"
  unitName: "°C"
  Tm: 50.9
- entrySequence: "GATCACATGCGTGATC ((((((....))))))"
  unitName: "°C"
  Tm: 57.8
- entrySequence: "GATCGCGAAAGCGCGATC ((((((....)))..)))"
  unitName: "°C"
  Tm: 64.1
- entrySequence: "GATCCCTAAAGGGATC ((((((....))))))"
  unitName: "°C"
  Tm: 60.6
- entrySequence: "GTAAGAGCGAAAGCTTAC (((..(((....))))))"
  unitName: "°C"
  Tm: 33.5
- entrySequence: "GAGTCGCGAAAGCGTCTC (((.(((....))).)))"
  unitName: "°C"
  Tm: 54.7
- entrySequence: "GGGTTACCGAAAGGTCCC (((..(((....))))))"
  unitName: "°C"
  Tm: 41
- entrySequence: "GCGGCGGCGAAAGCCCGC (((..(((....))))))"
  unitName: "°C"
  Tm: 65.6
- entrySequence: "GTTACACGAAAGTGCAAC (((.(((....))).)))"
  unitName: "°C"
  Tm: 44.7
- entrySequence: "GATCTTTTGAAAGATC ((((((....))))))"
  unitName: "°C"
  Tm: 44.7
- entrySequence: "GCATAAGGAAACTTATGC (((((((....)))))))"
  unitName: "°C"
  Tm: 54.7
- entrySequence: "GCTTCGCGAAAGCGCCGC ((..(((....)))..))"
  unitName: "°C"
  Tm: 44.7
- entrySequence: "GGACTCCGAAAGGAATCC (((.(((....))).)))"
  unitName: "°C"
  Tm: 47.3
- entrySequence: "GATCGTCACGACGATC ((((((....))))))"
  unitName: "°C"
  Tm: 57.8
- entrySequence: "GTTAGACGAAAGTCGAAC (((.(((....))).)))"
  unitName: "°C"
  Tm: 52.4
- entrySequence: "GGTAAGCGAAAGCTAACC (((.(((....))).)))"
  unitName: "°C"
  Tm: 50.1
- entrySequence: "GAGTAGCGAAAGCTCCTC (((.(((....))).)))"
  unitName: "°C"
  Tm: 39.5
- entrySequence: "GCTAAGCGAAAGCTCTGC ((..(((....)))..))"
  unitName: "°C"
  Tm: 31.4
- entrySequence: "GCCCTCGAAAGAGGGGGC ((((((....)))..)))"
  unitName: "°C"
  Tm: 68.4
- entrySequence: "GGCCACGGAAACGTGACC ((.((((....)))).))"
  unitName: "°C"
  Tm: 54.1
- entrySequence: "GAGGGCGGAAACACCCTC (((((.(....).)))))"
  unitName: "°C"
  Tm: 49.6
